B1: TPR 5TU (parent)
chain: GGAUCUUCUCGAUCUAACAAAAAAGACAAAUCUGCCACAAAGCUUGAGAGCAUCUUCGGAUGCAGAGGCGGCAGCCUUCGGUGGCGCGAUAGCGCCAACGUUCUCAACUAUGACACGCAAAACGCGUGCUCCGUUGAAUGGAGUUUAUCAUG

variants of: B1; assay: polymerase ribozyme fitness, log enrichment relative to wild type (log ratio); higher = more active; in vitro selection for triplet polymerase activity
Variants at the floor of the assay were thinned out.
Property: polymerase ribozyme fitness (log ratio); scope: individual variants

Check out these entries, answers already filled in.
U7A C43U A49G A110G; ≤ -4.2
G58C U78G C85G A106U A113G U144C; ≤ -4.2
C54A U55A C103G; ≤ -4.2
U53G C54A C95U U104C A106U C118U C149G; ≤ -4.2

Problem: Any idea what its polymerase ribozyme fitness (log ratio) is? The variant is U9C A22C C54U C57U G100U C105G
Result: ≤ -4.2

Problem: Given G50U G81A U102G , state its recorded polymerase ribozyme fitness (log ratio).
Result: -2.74

Problem: Entry G58A C63G G86U G94C A137C G141U U151C has what polymerase ribozyme fitness (log ratio)?
Result: ≤ -4.2

Problem: What value of polymerase ribozyme fitness (log ratio) has been recorded for this entry: U56A C103G
Result: -0.914

Problem: Can you share its polymerase ribozyme fitness (log ratio)? I mean this variant: C18G G83C C85U C96G A115C C116G U134A
Result: ≤ -4.2

Problem: Can you look up the measured polymerase ribozyme fitness (log ratio) of C93A C118U C125A A142G for me?
Result: ≤ -4.2

Problem: Which measured polymerase ribozyme fitness (log ratio) value corresponds to C36A C75A C87G A106U C149G ?
Result: ≤ -4.2

Value source: the RNAGym collection of RNA variant scans (doi:10.1073/pnas.2313332121)
